Target: Estrogen receptor (Homo sapiens, UniProt P03372)
Sequence (P03372 whole entry): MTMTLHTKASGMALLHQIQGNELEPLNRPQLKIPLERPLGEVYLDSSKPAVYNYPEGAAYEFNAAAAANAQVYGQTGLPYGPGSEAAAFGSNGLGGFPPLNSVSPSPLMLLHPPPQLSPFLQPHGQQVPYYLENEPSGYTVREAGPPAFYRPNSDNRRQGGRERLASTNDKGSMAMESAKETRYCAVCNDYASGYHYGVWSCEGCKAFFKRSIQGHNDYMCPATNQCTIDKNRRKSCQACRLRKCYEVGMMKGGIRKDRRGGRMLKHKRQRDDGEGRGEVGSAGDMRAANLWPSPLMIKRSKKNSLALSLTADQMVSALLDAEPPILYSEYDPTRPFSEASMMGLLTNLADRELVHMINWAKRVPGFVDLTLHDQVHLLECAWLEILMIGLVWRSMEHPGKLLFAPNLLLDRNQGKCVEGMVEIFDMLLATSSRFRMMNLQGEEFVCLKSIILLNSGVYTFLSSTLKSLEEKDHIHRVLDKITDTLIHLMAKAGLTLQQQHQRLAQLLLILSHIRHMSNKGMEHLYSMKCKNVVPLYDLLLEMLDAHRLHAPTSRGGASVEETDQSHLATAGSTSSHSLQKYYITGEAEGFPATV
Assay: Displacement of fluorescein-labeled estrogen ligand from recombinant ER-alpha (unknown origin) incubated for 2 hrs by fluorescence polarization assay
IC50 overview
Numbers only here, please. The scale is µM.

| record.smiles | target.desc | readout.value |
| --- | --- | --- |
| CN1CCN(CCOc2ccc(-n3c4c(c5ccc(O)cc5c3=O)C(=O)c3cc(O)ccc3-4)cc2)CC1 | Estrogen receptor (Homo sapiens, UniProt P03372) | 10.6 |
| COc1ccc2c(c1)C(=O)c1c-2n(-c2ccc(OCCN(C)C)cc2)c(=O)c2cc(OC)ccc12 | Estrogen receptor (Homo sapiens, UniProt P03372) | 24.4 |
| CCN(CC)CCCOc1ccc(-n2c3c(c4ccc(OC)cc4c2=O)C(=O)c2cc(OC)ccc2-3)cc1 | Estrogen receptor (Homo sapiens, UniProt P03372) | 39.8 |

# return recorded IC50 for input `COc1ccc2c(c1)C(=O)c1c-2n(-c2ccc(OCCN3CCCCC3)cc2)c(=O)c2cc(OC)ccc12`
24.9

Please supply the value of reported IC50 for the item `CCN(CC)CCOc1ccc(-n2c3c(c4ccc(O)cc4c2=O)C(=O)c2cc(O)ccc2-3)cc1`
6.7

Note IC50 for the molecule shown: `CN(C)CCOc1ccc(-n2c3c(c4ccc(O)cc4c2=O)C(=O)c2cc(O)ccc2-3)cc1`
7.6

Tell me its IC50 given `CCN(CC)CCOc1ccc(-n2c3c(c4ccc(OC)cc4c2=O)C(=O)c2cc(OC)ccc2-3)cc1` as the entry.
18.7

Dear colleague, please send me the reported IC50 for `COc1ccc2c(c1)C(=O)c1c-2n(-c2ccc(OCCCN3CCCCC3)cc2)c(=O)c2cc(OC)ccc12` when you can.
38.3
